src = patent US20240277662A1

protocol-details: Open-label, parallel-group single-dose PK study of etrasimod in patients with hepatic impairment and matched controls
Type: in vivo, human
assay-context: human; single oral dose 2 mg, fasted; across all groups; plasma; read-out: median tmax
quantity-name: Tmax

## Input Identify the reported Tmax for the following entry. O=C(O)C[C@H]1CCc2c1[nH]c1ccc(OCc3ccc(C4CCCC4)c(C(F)(F)F)c3)cc21 [Compound 1]
## Output 4 to 8 h

----------
protocol-details: Open-label, parallel-group single-dose PK study of etrasimod in patients with hepatic impairment and matched controls
Format: in vivo, human
assay-context: human, plasma, po, 2 mg, single oral dose 2 mg; mild hepatic impairment group; read-out: t1/2, mean (converted)
quantity-name: half-life
Please append the unit to your numeric answer.

## Input Identify the reported half-life for the following entry. O=C(O)C[C@H]1CCc2c1[nH]c1ccc(OCc3ccc(C4CCCC4)c(C(F)(F)F)c3)cc21
## Output 55.7 h

----------
protocol-details: Open-label, parallel-group single-dose PK study of etrasimod in patients with hepatic impairment and matched controls
Type: in vivo, human
assay-context: human, plasma, po, 2 mg, single oral dose 2 mg; severe hepatic impairment group; read-out: t1/2, mean (converted)
quantity-name: half-life (h)
One number for each entry, in h.

## Input Identify the reported half-life for the following entry. O=C(O)C[C@H]1CCc2c1[nH]c1ccc(OCc3ccc(C4CCCC4)c(C(F)(F)F)c3)cc21 [Compound 1]
## Output 76.5
